- System: HEK293
- Procedure Summary: Cytotoxicity against human Flp-In-293 cells expressing MDR1 assessed as reduction in cell viability by SRB assay
- Format: ADME, cell-based
Measured Endpoint: pIC50
// scale note: pIC50 = -log10(conc_M); give the bare number

Task item: Item: COc1ccc(-c2cc(OCCN3CCCC3)c3c(-c4cccs4)c(N)oc3c2)cc1OC Test system: HEK293 Read-out: pIC50 Value: ?
Reply: 4.43

Task item: Notebook: pull reported pIC50 for HEK293, entry COc1ccc(-c2cc(OCCN3CCCC3)c3c(-c4cccs4)c(N)oc3c2)cc1
Reply: 4.44

Task item: Entry CCN(CC)CCOc1cc(-c2ccc(OC)c(OC)c2)cc2oc(N)c(-c3cccs3)c12 , system HEK293: what pIC50 was measured?
Reply: 4.51

These measurements were taken from ChEMBL document CHEMBL4041509.
